All figures here come from patent US9376418B2.

target: recombinant human GST-SYK (Homo sapiens, UniProt P43405); construct: purchased Carna Biosciences 08-176; assay: Homogeneous Time-Resolved Fluorescence (HTRF) assay for the recombinant human Syk enzyme; type: biochemical; details: HTRF assay, recombinant human GST-SYK; IC50 given as class symbols; read-out: rhSYK Activity
pIC50: −log10 of the molar value.
Below, each entry is listed alongside its reported pIC50.

>  <compound>
Cc1cc(Nc2nccc(C(F)(F)F)n2)cc(-c2ccc(NC(C)(C)CO)nc2)c1 [Example 7.35]

>  <testedSystem>
recombinant human GST-SYK (Homo sapiens, UniProt P43405)

>  <pIC50>
6.00 to 7.00

$$$$
>  <compound>
CCOC(=O)C(F)(F)C(O)c1ccc(-c2cc(C)cc(Nc3nccc(C(F)(F)F)n3)c2)cn1 (stereo not shown) [Example 24.1]

>  <testedSystem>
recombinant human GST-SYK (Homo sapiens, UniProt P43405)

>  <pIC50>
> 7.00

$$$$
>  <compound>
Cc1cc(Nc2nccc(C(F)(F)F)n2)cc(-c2ccc(N3CCN(C)CC3)nc2)c1 [Example 7.46]

>  <testedSystem>
recombinant human GST-SYK (Homo sapiens, UniProt P43405)

>  <pIC50>
> 7.00

$$$$
>  <compound>
Cc1cc(Nc2nccc(C(F)(F)F)n2)cc(-c2ccc(C(=O)NS(N)(=O)=O)nc2)c1 [Example 16.2]

>  <testedSystem>
recombinant human GST-SYK (Homo sapiens, UniProt P43405)

>  <pIC50>
> 7.00

$$$$
>  <compound>
Cc1cc(Nc2nccc(C(F)(F)F)n2)cc(-c2ccc(NC3CCNC3=O)nc2)c1 (stereo not shown) [Example 7.157]

>  <testedSystem>
recombinant human GST-SYK (Homo sapiens, UniProt P43405)

>  <pIC50>
> 7.00

$$$$
>  <compound>
CCOC(=O)CCc1ccc(-c2cc(C)cc(Nc3nccc(C)n3)c2)nc1 [Example 2.36]

>  <testedSystem>
recombinant human GST-SYK (Homo sapiens, UniProt P43405)

>  <pIC50>
5.00 to 6.00

$$$$
>  <compound>
Cc1cc(Nc2nccc(C(F)(F)F)n2)cc(-c2ccc(NCC3CCC(=O)N3)nc2)c1 (stereo not shown) [Example 7.16]

>  <testedSystem>
recombinant human GST-SYK (Homo sapiens, UniProt P43405)

>  <pIC50>
> 7.00

$$$$
>  <compound>
COCC1CCN(c2cc(-c3cc(C)cc(Nc4nccc(C(F)(F)F)n4)c3)ccn2)C1 (stereo not shown) [Example 15.77]

>  <testedSystem>
recombinant human GST-SYK (Homo sapiens, UniProt P43405)

>  <pIC50>
6.00 to 7.00

$$$$
>  <compound>
Cc1cc(Nc2nccc(C(F)(F)F)n2)cc(-c2ccc(N3CCCC4(C3)OCCO4)nc2)c1 [Example 7.12]

>  <testedSystem>
recombinant human GST-SYK (Homo sapiens, UniProt P43405)

>  <pIC50>
6.00 to 7.00

$$$$
>  <compound>
Cc1cc(Nc2nccc(C(F)(F)F)n2)cc(-c2ccnc(NCCC(N)=O)c2)c1 [Example 15.59]

>  <testedSystem>
recombinant human GST-SYK (Homo sapiens, UniProt P43405)

>  <pIC50>
> 7.00

$$$$
